Answer each item with its documented PBM E-score.
# Experimental System: Yer184c (UniProt P39961)
# Sequence: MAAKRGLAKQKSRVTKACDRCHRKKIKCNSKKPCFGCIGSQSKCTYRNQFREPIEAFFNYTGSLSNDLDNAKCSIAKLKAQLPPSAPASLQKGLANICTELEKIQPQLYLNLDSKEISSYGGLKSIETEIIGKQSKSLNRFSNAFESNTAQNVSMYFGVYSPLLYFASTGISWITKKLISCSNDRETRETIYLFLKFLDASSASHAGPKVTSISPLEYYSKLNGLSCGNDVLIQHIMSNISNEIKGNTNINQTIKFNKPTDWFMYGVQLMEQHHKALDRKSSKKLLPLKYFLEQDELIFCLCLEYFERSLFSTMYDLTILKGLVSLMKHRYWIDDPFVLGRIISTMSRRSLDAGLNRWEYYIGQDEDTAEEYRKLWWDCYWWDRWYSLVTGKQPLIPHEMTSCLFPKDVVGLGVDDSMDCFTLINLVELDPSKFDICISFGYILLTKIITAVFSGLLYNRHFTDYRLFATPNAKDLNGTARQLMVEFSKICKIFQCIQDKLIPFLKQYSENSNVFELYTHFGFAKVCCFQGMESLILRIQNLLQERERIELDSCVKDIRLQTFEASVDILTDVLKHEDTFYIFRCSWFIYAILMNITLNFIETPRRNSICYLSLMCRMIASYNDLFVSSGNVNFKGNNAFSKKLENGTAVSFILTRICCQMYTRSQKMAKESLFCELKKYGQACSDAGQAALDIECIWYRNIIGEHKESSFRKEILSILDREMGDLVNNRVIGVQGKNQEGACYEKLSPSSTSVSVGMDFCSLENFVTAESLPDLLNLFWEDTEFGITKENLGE
# Test Protocol: PBM E-score (8-mer binding enrichment) (E-score (-0.5 to 0.5)); higher = stronger / more preferred TF binding
# Settings: protein concentration: 100 nM; construct: GST-full length
In all, about 33,000 sequences were measured (“E-score (-0.5 to 0.5)”: median about -0.016, highest 2% from about 0.3 on). What follows is part of a selection rich in the highest values, with near analogues and random picks from the rest.
Numbers only.

>>> reported_value("GCATCCGA")
0.176
>>> reported_value("TCATCCGA")
0.34
>>> reported_value("AATATCCC")
-0.0444
>>> reported_value("GCCTTACA")
-0.205
>>> reported_value("ACATCCGG")
0.397

State the recorded PBM E-score for every item in the following list.
1. GAGTTAGC
2. GTTCGCGA
3. ATTATCCA

Resp:
1. -0.0328
2. 0.311
3. 0.0655

State the recorded PBM E-score for every item in the following list.
1. ACCCAAGG
2. CGACGCCG
3. TGCCCGAA
4. GAAGGGGA
5. CTCGCGAC
6. TAAATTCA
7. CCTATCGA

Resp:
1. -0.162
2. 0.239
3. 0.0801
4. -0.201
5. -0.064
6. -0.0563
7. -0.107

State the recorded PBM E-score for every item in the following list.
1. CAACCGAC
2. CCATCCGG

Resp:
1: 0.238; 2: 0.143

State the recorded PBM E-score for every item in the following list.
1. CTTCGCGA
2. GTCGCGAA
3. ACATCCGT

Resp:
0.0769
0.00034
0.167
